Test: qHTS of pediatric cancer cell lines to identify multiple opportunities for drug repurposing: Confirmatory screen for Rh30 cells (AID 1347126); further: nearly all actives have a fitted effect of over 55% in size; further: potency means the concentration at half of the fitted maximal effect
Conditions: Rh30 rhabdomyosarcoma cell viability; series mostly up to 45.9 µM
Results filed as inconclusive are left out. Activity calls are given as the source filed them. The call rests on the fitted dose curve; in most records, active means well fitted cell-killing curve with a large enough effect; inconclusive means small, poorly fitted or top-dose-only effect, or effect the other way; inactive means no such curve, though single readings can be large or run the other way. Non-standard residues stand in square brackets, D forms with d. Residues, ends and D or L forms follow the SMILES beside them. *: point of attachment. Nva = CCC[C@H](N)C(=O)O; Cbz = O=C(OCc1ccccc1)*
endpoint: Potency

compound	Potency
Cn1cc(-c2cnn3c(N)c(Br)c([C@H]4CCCNC4)nc23)cn1	3.69 µM (active)
COc1cccc2c1C(=O)c1c(O)c3c(c(O)c1C2=O)C[C@@](O)(C(=O)CO)C[C@@H]3O[C@H]1C[C@H](N)[C@H](OC2CCCCO2)[C@H](C)O1 (some centres undefined)	inactive
C[C@@]12C(=O)OC(=O)[C@@]1(C)C1CCC2O1	3.29 µM (active)
CC(=O)SCC(Cc1ccccc1)C(=O)NCC(=O)OCc1ccccc1 (centres undefined)	inactive
CCC[C@@H](C=O)NC(=O)[C@H](CC(C)C)NC(=O)[C@H](CC(C)C)NC(=O)OCc1ccccc1 (Cbz-Leu-Leu-[Nva]-aldehyde)	4.14 µM (active)
C=Cc1c(C)c2cc3nc(cc4[nH]c(cc5nc(cc1[nH]2)C(C)=C5CCC(=O)O)c(CCC(=O)OC)c4C)[C@@]1(C)C3=CC=C(C(=O)OC)[C@H]1C(=O)OC	inactive

Query: Entry C#CCC(Cc1cnc2nc(N)nc(N)c2n1)c1ccc(C(=O)N[C@@H](CCC(=O)O)C(=O)O)cc1 (some centres undefined) has what Potency?
Result: inactive

Query: Given the compound COc1ccc2c(c1OC)C(=O)OC2[C@H]1c2c(cc3c(c2OC)OCO3)CCN1C (some centres undefined) , what is its reported Potency?
Result: inactive

Query: Consider the compound C=CC(=O)N1CCc2ccc(-n3c(=O)ccc4cnc5ccc(-c6cnn(C)c6)cc5c43)cc21 and give its measured Potency.
Result: 5.22 µM (active)

Query: Recorded Potency for CC(C)C[C@H](NC(=O)[C@@H](NC(=O)c1cccc(-c2ccccc2)n1)[C@@H](C)O)B(O)O , please?
Result: 3.29 µM (active)

* * *

Test system: KB-3-1
Assay: Cytotoxic Profiling of Annotated Libraries Using Quantitative High-Throughput Screening (AID 1296008); further: potency means the concentration at half of the fitted maximal effect; nearly all actives have a fitted effect of over 60% in size
Conditions: Five cell lines viability, CellTiter-Glo ATP luminescence, 48-72 h
Results filed as inconclusive are left out. Activity calls are given as the source filed them. Calls follow the shape of the dose curve; as a rule, active = well fitted inhibition curve with a large enough effect; inconclusive = small, poorly fitted or top-dose-only effect; inactive = flat fitted curve, though single readings scatter.
// reported Potency for each item listed

Completed entries (count: 2):
In [3]: df
Out[3]:
                                   compound  endpoint     valuemeasured
0  CS(=O)(=O)N1CCc2c(-c3cnc(N)nc3)nc(N3CCOCC3)nc21   Potency  4.61 µM (active)
1  Nc1nc(=O)n([C@H]2C[C@H](O)[C@@H](CO)O2)cc1F   Potency  11.8 µM (active)

Query: # get_value(readout='Potency', item= CC(C)N1[N]C(=C2C=c3cc(O)ccc3=N2)c2c(N)ncnc21 )
Result: 1.18 µM (active)

* * *

System: UISO
Experiment: qHTS assay to identify novel small-molecules to repurpose for Merkel cell carcinoma treatment (AID 1296009); further: nearly all actives have a fitted effect of over 60% in size
Conditions: MCC and control cell lines, CellTiter-Glo viability, 72 h; series mostly up to 46 µM
Inconclusive results are not listed. The source made the active and inactive calls. Calls follow the shape of the dose curve; as a rule, active = well fitted inhibition curve with a large enough effect; inconclusive = small, poorly fitted or top-dose-only effect; inactive = flat fitted curve, though single readings scatter.
Select the correct class. Options are active, inactive and nothing else.

Past entries and their recorded results:
                                smilesentry  system  classlabel
0  O=C(C=CC#Cc1cccc(NS(=O)(=O)c2ccccc2)c1)NO    UISO      active
1  C[C@]12C=CC(=O)N[C@@H]1CC[C@H]1[C@H]3CC[C@@H](C(=O)Nc4cc(C(F)(F)F)ccc4C(F)(F)F)[C@@]3(C)CC[C@@H]12    UISO    inactive
2  COC(=O)[C@@H]1[C@H]2C[C@@H]3c4[nH]c5ccccc5c4CCN3C[C@@H]2CC[C@@H]1O    UISO    inactive

Query: What is the recorded call for this molecule in the test? C=CC(=O)N1CCc2ccc(-n3c(=O)ccc4cnc5ccc(-c6cnn(C)c6)cc5c43)cc21
Result: active
